Origin of the recorded values: PubChem BioAssay (NCI)

Test system: MOLT-4 leukemia
Assay Explanation: NCI tumour cell line growth inhibition, 48 h
Measurement Label: TGI

Lab note: measured TGI of COC(=O)CC1c2ccccc2N2C(=O)Cc3c([nH]c4ccccc34)C12 (centres undefined) was > 100 µM

Lab note: measured TGI of CC1(C)N=C(C2CCCN2C(=O)OCc2ccccc2)OC1=O (centres undefined) was > 100 µM

Lab note: measured TGI of `O=C(Nc1ccc(Cl)cc1)c1cc(S(=O)(=O)Nc2nnc3c(Cl)cc(C(F)(F)F)cn23)c(S)cc1Cl` was > 100 µM

Lab note: measured TGI of `COc1ccc(N(/C=C/C(=O)C(F)(F)F)CC(=O)c2ccc(F)cc2)cc1` was 43.6 µM

Next:
Lab note: measured TGI of `CN(C)Cc1cc(N=Nc2ccc(Cl)cc2)cc(CN(C)C)c1O` was 10.7 µM

Lab note: measured TGI of `COc1cccc(-c2cc3c4c(nc5ccccc53)C(=O)c3cccnc3-c4n2)c1` was > 100 µM

Lab note: measured TGI of `CCc1ccc2c(c1)C(=O)c1c-2n(CCCN=[N+]=[N-])c(=O)c2cc(OC)c(OC)cc12` was > 100 µM

Lab note: measured TGI of `O=c1oc2c(Cl)cc(Cl)cc2cc1C1=CSC2=NCCN12` was > 100 µM

Lab note: measured TGI of `Nc1c(C(=O)c2cccc(-c3cccnc3)c2)cnn1-c1ccc(F)cc1F` was > 25 µM

Lab note: measured TGI of `Cc1ccc2c(/C=C/c3ccc(N(C)C)cc3)ccc(C(C)C)cc1-2` was > 100 µM

Lab note: measured TGI of `COc1cc(OC)c2[nH]c3c(O)c(-c4c(C)cc5c([nH]c6c(OC)cc(OC)cc65)c4O)c(C)cc3c2c1` was 21.9 µM

Lab note: measured TGI of `O=[N+]([O-])c1ccc(NNN=Nc2ccc(-c3nc4ccccc4s3)cc2)c([N+](=O)[O-])c1` was 53.5 µM

====

Test system: SK-MEL-5 melanoma
Assay Explanation: NCI tumour cell line growth inhibition, 48 h
Recorded TGI, one value per entry.
Give a bare numeral; the unit µM is implied.

Some molecules with recorded TGI:
Lab note: measured TGI of `N#Cc1nc2c(S(=O)(=O)c3ccc(Cl)cc3)c(N)n(CCCN3CCOCC3)c2nc1C#N` was 20

Lab note: measured TGI of C=C1CC[C@@H]2[C@](C)(COC(C)=O)[C@H](OC(C)=O)CC[C@@]2(C)[C@@H]1CC(Nc1ccc(S(=O)(=O)Nc2ccc(Cl)nn2)cc1)C1=CCOC1=O (some centres undefined) was 3.13

Lab note: measured TGI of CC1C(C#N)(C#N)C(C#N)=C(N)C1(Cl)[N+](=O)[O-] (centres undefined) was 25.4

Next:
Lab note: measured TGI of `C=C1c2ccoc2C[C@H]2[C@H]1CC[C@@]1(O)[C@@](C)(C(=O)OC)CCC[C@]21C` was 37.8

====

Tested on: HCT-116 colon
Assay Explanation: NCI tumour cell line growth inhibition, 48 h
Measurement Label: log10(TGI) (log10 of the value in µM)
Values reflect log10 of reported TGI (µM).

Some molecules with recorded log10(TGI):
Lab note: measured log10(TGI) of `O=C1c2ccc3c4c(ccc(c24)C(=O)N1CCCNCc1ccccc1Cl)C(=O)N(CCCNCc1ccccc1Cl)C3=O` was -0.46

Lab note: measured log10(TGI) of `O=C(c1ccc(Cl)cc1)N(C(=S)OCCOc1ccccc1)c1ccccc1` was 1.49

Lab note: measured log10(TGI) of `O=S(=O)(c1cccc2c(I)cccc12)N1CCCNCC1` was 1.51

Lab note: measured log10(TGI) of `O=C(NNC(=O)c1csc(NC(=S)NC2CCCCC2)n1)c1ccccc1` was 1.20

Lab note: measured log10(TGI) of `Cc1ccc(N/C(SCc2ccccc2)=C(\C(Cl)=C(Cl)Cl)[N+](=O)[O-])c(C)c1` was 1.57

Lab note: measured log10(TGI) of `Cc1cc(S(=O)(=O)/N=C(\[N-]S(=O)(=O)c2cc(Cl)sc2Cl)[n+]2ccc(N(C)C)cc2)c(S)cc1Cl` was 1.74

Next:
Lab note: measured log10(TGI) of CCC[CH2][Sn]1([CH2]CCC)[O]C2C(CO)OC(n3ccc(N)nc3=O)C2[O]1 (stereo not drawn) was 0.45

Lab note: measured log10(TGI) of `Cc1ccc(-c2nc3nc(-c4ccccc4)nc(N4CCNCC4)c3o2)cc1` was -0.47

Lab note: measured log10(TGI) of C=C1CC[C@@H]2[C@](C)(COC(C)=O)[C@H](OC(C)=O)CC[C@@]2(C)[C@@H]1CC(Nc1ccc(S(=O)(=O)Nc2ccc(Cl)nn2)cc1)C1=CCOC1=O (stereo partly drawn) was 0.37

Lab note: measured log10(TGI) of COC(=O)C1=C(C)NC(C)=C(C(=O)OCC(C)C)C1c1ccccc1[N+](=O)[O-] (stereo not drawn) was 1.08

Lab note: measured log10(TGI) of `COc1ccc(C(=O)/C=C/c2cccc(Nc3ccnc4cc(Cl)ccc34)c2)cc1` was 1.09

Lab note: measured log10(TGI) of `Cc1nn(-c2ccc(Cl)cc2)c2nc3c(nc12)C(=O)C(=O)c1ccccc1-3` was 1.52

Lab note: measured log10(TGI) of CN(C)CC1CCC2=C(C1=O)C(c1ccc(Cl)c(Cl)c1)C1=C(CCC(CN(C)C)C1=O)O2 (stereo not drawn) was 1.37
